# credit: ChEMBL document CHEMBL3784969

assay: AUClast in patient (7 patients) with renal insufficiency at 250 mg, po administered as single dose by gas chromatography; type: ADME, organism-based; set-up: dose 250 mg, time 0 - last, route oral; settings: human, in vivo
endpoint name: AUC(0-t) (ng·h/mL)
State just the number; it will be interpreted in ng·h/mL.

Asked: Returns the measured AUC(0-t) for the input molecule. Input: CC(C)C(=O)Nc1ccc([N+](=O)[O-])c(C(F)(F)F)c1 [FLUTAMIDE]
Given back: 32.5

----------
experiment: Tmax in patient (4 patients) with renal insufficiency at 250 mg, po administered as single dose by gas chromatography; assay type: ADME, organism-based; settings: human, in vivo
endpoint name: Tmax (h)
Please reply with the bare figure in h and do not write the unit itself.

Asked: GET /values?readout=Tmax&item= CC(C)C(=O)Nc1ccc([N+](=O)[O-])c(C(F)(F)F)c1 [FLUTAMIDE]
Given back: 1

----------
Form field: fraction unbound (one value per entry).
experiment: Plasma protein binding in healthy geriatric volunteer by equilibrium dialysis method; assay type: ADME, cell-free; settings: human, read-out: PPB

CC(C)(O)C(=O)Nc1ccc([N+](=O)[O-])c(C(F)(F)F)c1 [HYDROXYFLUTAMIDE]
< 0.06

Turning to the following compound.
Asked: So what does the record say about fraction unbound for CC(C)C(=O)Nc1ccc([N+](=O)[O-])c(C(F)(F)F)c1 [FLUTAMIDE] ?
Given back: < 0.06

----------
test: Renal clearance in patient (4 patients) with renal insufficiency at 250 mg, po administered as single dose by gas chromatography; assay type: ADME, organism-based, Kidney; conditions: human, in vivo
endpoint name: CL renal (mL/min)
A number alone suffices; assume mL/min.

Asked: Quick one: CL renal of CC(C)C(=O)Nc1ccc([N+](=O)[O-])c(C(F)(F)F)c1 [FLUTAMIDE] ?
Given back: 4

----------
experiment: AUC (0 to 96 hrs) in patient (6 patients) with renal insufficiency at 250 mg, po administered as single dose by gas chromatography; type: ADME, organism-based; design: dose 250 mg, time < 96 hr, route oral; settings: human, in vivo
endpoint name: AUC(0-t) at 96 h

Asked: Sample CC(C)C(=O)Nc1ccc([N+](=O)[O-])c(C(F)(F)F)c1 [FLUTAMIDE] — what was its AUC(0-t) at 96 h?
Given back: 96.4 ng·h/mL

----------
experiment: AUC (0 to 24 hrs) in patient (7 patients) with renal insufficiency at 250 mg, po administered as single dose by gas chromatography; type: ADME, organism-based; set-up: dose 250 mg, time < 24 hr, route oral; details: human, in vivo
endpoint name: AUC(0-t) at 24 h (ng·h/mL)
Kindly answer with a numeric value in ng·h/mL, unit omitted.

Asked: What value of AUC(0-t) at 24 h has been reported for the following compound? CC(C)C(=O)Nc1ccc([N+](=O)[O-])c(C(F)(F)F)c1 [FLUTAMIDE]
Given back: 59.8

----------
assay: AUC (0 to 96 hrs) in patient (7 patients) with renal insufficiency at 250 mg, po administered as single dose by gas chromatography; assay type: ADME, organism-based; design: dose 250 mg, time < 96 hr, route oral; details: human, in vivo
endpoint name: AUC(0-t) at 96 h (ng·h/mL)
Write the number in ng·h/mL without appending the unit.

Asked: Would you mind telling me what AUC(0-t) at 96 h value was observed for CC(C)C(=O)Nc1ccc([N+](=O)[O-])c(C(F)(F)F)c1 [FLUTAMIDE] ?
Given back: 59.8

----------
assay: AUClast in patient (6 patients) with renal insufficiency at 250 mg, po administered as single dose by gas chromatography; format: ADME, organism-based; design: dose 250 mg, time 0 - last, route oral; settings: human, in vivo
endpoint name: AUC(0-t) (ng·h/mL)
Please state the figure in ng·h/mL; there is no need to write the unit.

Asked: Which value of AUC(0-t) has been reported for CC(C)C(=O)Nc1ccc([N+](=O)[O-])c(C(F)(F)F)c1 [FLUTAMIDE] in the records?
Given back: 75.8

----------
assay: Tmax in patient (6 patients) with renal insufficiency at 250 mg, po administered as single dose by gas chromatography; format: ADME, organism-based; conditions: human, in vivo
endpoint name: Tmax (h)
# value in h; strip the unit string

Asked: Query: Tmax; subject: CC(C)C(=O)Nc1ccc([N+](=O)[O-])c(C(F)(F)F)c1 [FLUTAMIDE]
Given back: 1.4

----------
assay: AUC (0 to 24 hrs) in patient (3 patients) with renal insufficiency at 250 mg, po administered as single dose by gas chromatography; type: ADME, organism-based; parameters: time < 24 hr, dose 250 mg, route oral; details: human, in vivo
endpoint name: AUC(0-t) at 24 h (ng·h/mL)
Express your answer in ng·h/mL, writing the number without its unit.

Asked: Quick one: AUC(0-t) at 24 h for CC(C)C(=O)Nc1ccc([N+](=O)[O-])c(C(F)(F)F)c1 [FLUTAMIDE] ?
Given back: 98

----------
assay: Cmax in patient (4 patients) with renal insufficiency at 250 mg, po administered as single dose by gas chromatography; type: ADME, organism-based; set-up: dose 250 mg, route oral; conditions: human, in vivo
endpoint name: Cmax (ng/mL)
Kindly answer with a numeric value in ng/mL, unit omitted.

Asked: If you can, please state the reported Cmax value of CC(C)C(=O)Nc1ccc([N+](=O)[O-])c(C(F)(F)F)c1 [FLUTAMIDE] .
Given back: 44

----------
assay: Tmax in patient (3 patients) with renal insufficiency at 250 mg, po administered as single dose by gas chromatography; format: ADME, organism-based; conditions: human, in vivo
endpoint name: Tmax (h)
All answers are understood in h, so give the number only.

Asked: Look up Tmax for this compound: CC(C)C(=O)Nc1ccc([N+](=O)[O-])c(C(F)(F)F)c1 [FLUTAMIDE]
Given back: 2

----------
experiment: Cmax in patient (3 patients) with renal insufficiency at 250 mg, po administered as single dose by gas chromatography; assay type: ADME, organism-based; parameters: dose 250 mg, route oral; settings: human, in vivo
endpoint name: Cmax (µg/mL)
// return numeric value only (unit: µg/mL, not printed)

Asked: Name the recorded Cmax for CC(C)C(=O)Nc1ccc([N+](=O)[O-])c(C(F)(F)F)c1 [FLUTAMIDE] .
Given back: 0.041

----------
experiment: Elimination rate constant in patient with renal insufficiency at 250 mg, po administered first dose followed by 14 days wash out period and administered second dose 4 hrs prior to hemodialysis measured during hemodialysis treatment by gas chromatography; assay type: ADME, organism-based; settings: human, in vivo
endpoint name: k el (s⁻¹)
Kindly answer with a numeric value in s⁻¹, unit omitted.

Asked: Look up k el: CC(C)C(=O)Nc1ccc([N+](=O)[O-])c(C(F)(F)F)c1 [FLUTAMIDE]
Given back: 5.56e-05

----------
assay: Tmax in patient (6 patients) with renal insufficiency at 250 mg, po administered as single dose 4 hrs prior to hemodialysis treatment measured at starting time of dialysis and post dialysis treatment by gas chromatography; assay type: ADME, organism-based; settings: human, in vivo
endpoint name: Tmax (h)
Unit h implied. Number only.

Asked: Which Tmax is listed for CC(C)C(=O)Nc1ccc([N+](=O)[O-])c(C(F)(F)F)c1 [FLUTAMIDE] ?
Given back: 1

----------
test: Cmax in patient (6 patients) with renal insufficiency at 250 mg, po administered as single dose 4 hrs prior to hemodialysis treatment measured at starting time of dialysis and post dialysis treatment by gas chromatography; format: ADME, organism-based; parameters: dose 250 mg, route oral; conditions: human, in vivo
endpoint name: Cmax (ng/mL)
Write the number in ng/mL without appending the unit.

Asked: Reported Cmax for CC(C)C(=O)Nc1ccc([N+](=O)[O-])c(C(F)(F)F)c1 [FLUTAMIDE] : what is it?
Given back: 81

----------
experiment: AUC (0 to 24 hrs) in patient (4 patients) with renal insufficiency at 250 mg, po administered as single dose by gas chromatography; format: ADME, organism-based; set-up: dose 250 mg, time < 24 hr, route oral; details: human, in vivo
endpoint name: AUC(0-t) at 24 h
Units required after the number.

Asked: Look up AUC(0-t) at 24 h: CC(C)C(=O)Nc1ccc([N+](=O)[O-])c(C(F)(F)F)c1 [FLUTAMIDE]
Given back: 0.107 µg·h/mL

----------
experiment: AUClast in patient (6 patients) with renal insufficiency at 250 mg, po administered as single dose 4 hrs prior to hemodialysis treatment measured at starting time of dialysis and post dialysis treatment by gas chromatography; format: ADME, organism-based; design: dose 250 mg, route oral, time 0 - last; conditions: human, in vivo
endpoint name: AUC(0-t) at 4 h (ng·h/mL)
Output spec: scalar in ng·h/mL, unitless text.

Asked: For the compound CC(C)C(=O)Nc1ccc([N+](=O)[O-])c(C(F)(F)F)c1 [FLUTAMIDE] , what AUC(0-t) at 4 h is on record?
Given back: 179
